- testSystem: BACE1-474 (extracellular domain and transmembrane domain of β-secretase) (Homo sapiens, UniProt P56817)
- Construct: made in house; host or cells: FreeStyle 293-F cells (HEK293)
- Sequence (P56817 with tags, fused parts or gaps): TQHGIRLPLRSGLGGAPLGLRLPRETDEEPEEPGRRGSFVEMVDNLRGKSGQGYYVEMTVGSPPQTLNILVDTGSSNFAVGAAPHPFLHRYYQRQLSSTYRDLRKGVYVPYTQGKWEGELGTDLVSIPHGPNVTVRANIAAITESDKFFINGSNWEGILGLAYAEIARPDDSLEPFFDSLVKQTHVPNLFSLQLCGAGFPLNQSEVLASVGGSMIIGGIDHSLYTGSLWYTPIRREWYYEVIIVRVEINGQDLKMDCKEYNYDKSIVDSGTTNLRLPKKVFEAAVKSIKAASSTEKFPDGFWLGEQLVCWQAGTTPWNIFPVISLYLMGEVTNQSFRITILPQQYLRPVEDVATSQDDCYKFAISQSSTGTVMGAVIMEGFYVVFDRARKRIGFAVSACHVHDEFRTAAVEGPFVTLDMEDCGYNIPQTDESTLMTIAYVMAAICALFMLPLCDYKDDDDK
- methodDescription: Inhibitory action on BACE protein, fluorescence-quenched peptide substrate
- Format: biochemical
- statedConditions: final concentration: 10 μM; 37° C. for 63 hr; pH 5.5; read-out: inhibition rates on BACE1-474
- Source text: […]
measureName: inhibition at 10 µM (%)

> print(dat)
                                   molecule  testvalue
1  CCN(CC)CCC1CCc2cc(OCc3ccc(-c4ccccc4)cc3)ccc2C1 (centres unmarked)         38
2  CN(C)CC[C@@H]1CCc2cc(OCc3ccc(-c4ccccc4)cc3)ccc2C1         30
3  NCCC1CCc2cc(OCc3ccc(-c4ccccc4)cc3)ccc2C1 (centres unmarked)         37
4  C[N+](C)([O-])CC[C@@H]1CCc2cc(OCc3ccc(-c4ccccc4)cc3)ccc2C1         34
5  Cc1ccc(-c2ccc(COc3ccc4c(c3)CC[C@@H](CCN(C)C)C4)cc2)cc1         37
